# MEASURED ON: Alpha-2C adrenergic receptor (Homo sapiens) (UniProt P18825)
# Sequence (P18825 whole entry, looked up): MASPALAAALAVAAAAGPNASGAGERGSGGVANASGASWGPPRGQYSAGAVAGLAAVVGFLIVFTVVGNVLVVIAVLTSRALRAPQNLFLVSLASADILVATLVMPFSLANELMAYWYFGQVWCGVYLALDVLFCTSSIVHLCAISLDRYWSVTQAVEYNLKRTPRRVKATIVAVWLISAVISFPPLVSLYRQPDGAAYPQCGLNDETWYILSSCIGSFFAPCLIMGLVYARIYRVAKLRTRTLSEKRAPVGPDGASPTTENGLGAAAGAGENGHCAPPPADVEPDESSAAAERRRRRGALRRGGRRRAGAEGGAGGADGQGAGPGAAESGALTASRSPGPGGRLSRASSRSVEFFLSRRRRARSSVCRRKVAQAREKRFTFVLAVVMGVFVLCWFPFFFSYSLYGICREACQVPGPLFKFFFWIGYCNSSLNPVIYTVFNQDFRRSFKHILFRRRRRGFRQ
# EXPERIMENTAL PROTOCOL: compounds altering alpha2C-coupled GIRK flux – cell-based, HEK293 alpha2C/GIRK1/2, thallium flux, primary screen (AID 624);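 also: slope of fluorescence ratio to pre-addition baseline per second over 15 to 24 s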
# RECORDED CONDITIONS: thallium flux BTC fluorescence, at 10 µM, actives lie on both sides
MEASURED ATTRIBUTE: slope

> print(dat)
                                   compound  measured.value
1  COc1cc2c(cc1OC)C(C)N(C(=O)c1cc3n(n1)C(C(F)(F)F)CC(c1ccco1)N3)CC2 (stereo not given)         0.00369
2  CCCC1c2ccc(C)n2CCN1C(=O)Nc1ccccc1Cl (stereo not given)          0.0054
3  CC(C)CC1NC(=O)N(CC(=O)N2CCN(S(=O)(=O)c3ccc(Cl)cc3)CC2)C1=O (stereo not given)         0.00417
4  Cc1cc(=O)n2nc(N3CCCC(C(=O)N4CCN(C)CC4)C3)sc2n1 (stereo not given)         0.00576
5  CCN1CCN(C(c2cccs2)C(C)NC(=O)c2ccccc2)CC1 (stereo not given)         0.00664

Value source: PubChem BioAssay
